As an illustration, consider measured pIC50 for compounds on Beta-1,3-glucan synthase (Candida albicans, UniProt O13383).
Sequence (O13383 whole entry): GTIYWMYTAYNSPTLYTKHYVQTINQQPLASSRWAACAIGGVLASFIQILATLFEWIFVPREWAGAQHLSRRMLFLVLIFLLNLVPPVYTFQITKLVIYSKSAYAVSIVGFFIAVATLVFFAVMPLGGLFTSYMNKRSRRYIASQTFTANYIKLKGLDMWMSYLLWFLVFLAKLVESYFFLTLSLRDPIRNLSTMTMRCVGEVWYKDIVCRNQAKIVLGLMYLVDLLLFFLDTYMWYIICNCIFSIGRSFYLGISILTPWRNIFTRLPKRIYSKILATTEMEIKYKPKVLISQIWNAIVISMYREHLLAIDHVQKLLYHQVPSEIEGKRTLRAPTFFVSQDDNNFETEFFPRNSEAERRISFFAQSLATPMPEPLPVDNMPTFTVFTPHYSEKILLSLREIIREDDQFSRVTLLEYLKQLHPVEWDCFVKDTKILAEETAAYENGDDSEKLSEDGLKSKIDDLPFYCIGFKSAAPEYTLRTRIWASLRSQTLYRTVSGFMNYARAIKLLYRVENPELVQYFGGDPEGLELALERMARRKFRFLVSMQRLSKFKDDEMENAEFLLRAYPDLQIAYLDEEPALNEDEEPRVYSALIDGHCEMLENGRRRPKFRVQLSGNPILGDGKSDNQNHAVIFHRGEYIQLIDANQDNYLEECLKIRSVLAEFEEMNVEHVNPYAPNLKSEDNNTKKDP
pIC50: −log10 of the molar value.

>  <compound>
CCCCCCCCOc1ccc(NC(=O)C(CCCN)NC(=O)[C@]2(O)C[C@@H](O)[C@@H](O)[C@H](O)C2)cc1 (stereo partly specified)

>  <targetOrTestSystem>
Beta-1,3-glucan synthase (Candida albicans, UniProt O13383)

>  <signQualifier>
=

>  <pIC50>
4.28

$$$$
>  <compound>
CCCCCCCCOc1ccc(NC(=O)C(NC(=O)[C@]2(O)C[C@@H](O)[C@@H](O)[C@H](OC(=O)/C=C/c3ccc(O)c(O)c3)C2)C(C)O)cc1 (stereo partly specified)

>  <targetOrTestSystem>
Beta-1,3-glucan synthase (Candida albicans, UniProt O13383)

>  <signQualifier>
<

>  <pIC50>
4.31

$$$$
>  <compound>
CCCCCCCCOc1ccc(NC(=O)[C@]2(O)C[C@@H](O)[C@@H](O)[C@H](OC(=O)/C=C/c3ccc(O)c(O)c3)C2)cc1

>  <targetOrTestSystem>
Beta-1,3-glucan synthase (Candida albicans, UniProt O13383)

>  <signQualifier>
=

>  <pIC50>
4.39

$$$$
>  <compound>
O=C(/C=C/c1ccc(O)c(O)c1)O[C@@H]1C[C@](O)(C(=O)O)C[C@@H](O)[C@H]1O

>  <targetOrTestSystem>
Beta-1,3-glucan synthase (Candida albicans, UniProt O13383)

>  <signQualifier>
<

>  <pIC50>
4.05

$$$$
>  <compound>
CCCCCCCCOc1ccc(NC(=O)C(CCCN)NC(=O)[C@]2(O)C[C@@H](O)[C@@H](O)[C@H](OC(=O)/C=C/c3ccc(O)c(O)c3)C2)cc1 (stereo partly specified)

>  <targetOrTestSystem>
Beta-1,3-glucan synthase (Candida albicans, UniProt O13383)

>  <signQualifier>
=

>  <pIC50>
4.82

$$$$
>  <compound>
CCCCCCCCOc1ccc(NC(=O)C(CC(=O)O)NC(=O)[C@]2(O)C[C@@H](O)[C@@H](O)[C@H](O)C2)cc1 (stereo partly specified)

>  <targetOrTestSystem>
Beta-1,3-glucan synthase (Candida albicans, UniProt O13383)

>  <signQualifier>
<

>  <pIC50>
4.20

$$$$

====

A set of molecules tested on Beta-1,3-glucan synthase (Candida albicans, UniProt O13383), with measured IC50:
Starred links: 1 amine or outer side, 2 acyl side, 3 side chain; linkers in the order of their positions; H or OH if unused. Positions of bridges follow the written chain, without caps; N, C: chain ends. Non-standard residues stand in square brackets, D forms with d. Residues, ends and D or L forms follow the SMILES beside them. *: point of attachment. Orn(4R-OH,5R-OH) = O=C([C@H](C[C@@H](O)[C@@H](O)N[*:3])N[*:1])[*:2]; hTyr(3S-OH,4S-OH) = N[C@H](C(=O)O)[C@H](O)[C@@H](O)c1ccc(O)cc1; Pro(3S-OH,4S-Me) = C[C@H]1CN[C@H](C(=O)O)[C@H]1O; Palmitoyl = CCCCCCCCCCCCCCCC(=O)*; Hyp = O=C(O)[C@@H]1C[C@@H](O)CN1
reportedProperty: IC50 (µM)

>  <molecule>
CCCCCCCCCCCCCCCC(=O)N[C@H]1C[C@@H](O)[C@@H](O)NC(=O)[C@@H]2[C@@H](O)[C@@H](C)CN2C(=O)[C@H]([C@@H](C)O)NC(=O)[C@H]([C@H](O)[C@@H](O)c2ccc(O)cc2)NC(=O)[C@@H]2C[C@@H](O)CN2C(=O)[C@H]([C@@H](C)O)NC1=O [ACULEACIN A] (Palmitoyl-[Orn(4R-OH,5R-OH)]T[Hyp][hTyr(3S-OH,4S-OH)]T[Pro(3S-OH,4S-Me)]; lactam 1-C)

>  <reportedProperty>
IC50

>  <signQualifier>
=

>  <recordedMeasurement>
8

$$$$
>  <molecule>
CCCCCCCCOc1ccc(NC(=O)C(CC(=O)O)NC(=O)/C=C/c2ccc(O)c(O)c2)cc1 (configuration not stated)

>  <reportedProperty>
IC50

>  <signQualifier>
>

>  <recordedMeasurement>
64

$$$$
